Test: Primary qHTS for inhibitors of nuclear receptor binding SET domain protein 2 (NSD2) in an RCH-ACV wild type WT cells (2C) (AID 1645877); note: nearly all actives have a fitted effect of over 70% in size; note: potency is the fitted concentration of half-maximal effect
Conditions: RCH-ACV (leukaemia line) NSD2 WT (2C) viability, CellTiter-Glo, 72 h; series mostly up to 44.9 µM
Results filed as inconclusive are left out. Calls of active or inactive are those of the source. Calls come from the whole dose curve; as a rule, active = well fitted inhibition curve with a large enough effect; inconclusive = small, poorly fitted or top-dose-only effect; inactive = no such curve, though single readings can be large or run the other way.

item smiles	Potency
C[C@H](N)[C@H](O)c1cccc(O)c1	inactive
CCCCC/C(C=O)=C\c1ccccc1	inactive
Cc1cc(N)c2ccccc2[n+]1CCCCCCCCCC[n+]1c(C)cc(N)c2ccccc21	3.25 µM (active)

###

Tested on: PC15
Test: qHTS profiling for inhibitors of Plasmodium falciparum proliferation (AID 504749); note: nearly all actives have a fitted effect of over 60% in size
Details: P. falciparum in erythrocytes, SYBR Green DNA, 72 h; series mostly up to 28.7 µM
Results filed as inconclusive are left out. Activity calls are given as the source filed them. Calls come from the whole dose curve; as a rule, active = well fitted inhibition curve with a large enough effect; inconclusive = small, poorly fitted or top-dose-only effect; inactive = flat fitted curve, though single readings scatter.
Outcome codes: 1.0 = active, 0.0 = inactive

compound	group
Cc1cc(N)c2ccccc2[n+]1CCCCCCCCCC[n+]1c(C)cc(N)c2ccccc21	1.0
O=C1c2c(O)cccc2Cc2cccc(O)c21	0.0
Oc1cn2c(n1)Nc1ccc(Cl)c(Cl)c1C2	0.0
NC(=O)NNc1ccccc1	0.0
CCCCN(CCCC)CCCOC(=O)c1ccc(N)cc1	0.0
C#CCN(C)Cc1ccccc1	0.0
CCCCOC(=O)c1ccc(O)cc1	0.0
CCOC(=O)c1ccc(O)cc1	0.0
Nc1ccc(S(=O)(=O)Nc2ccccc2)cc1	0.0
Cc1ncc(COP(=O)(O)O)c(C=O)c1O	0.0
Cc1cccc(C)c1NC(=O)CN(CC(=O)O)CC(=O)O	0.0
N[C@@H](CSCCCO)C(=O)O	0.0
CC(C)(C)NCC(O)COc1ccc(NC(=O)NC2CCCCC2)cc1 (configuration not stated)	0.0
CNC(=O)Oc1ccc2c(c1)[C@]1(C)CCN(C)[C@@H]1N2C	1.0
Cc1cc2c(cc1S(N)(=O)=O)S(=O)(=O)CCC2	0.0
CC(O)CN(CCN(CC(C)O)CC(C)O)CC(C)O (configuration not stated)	0.0
O=C1NS(=O)(=O)c2ccccc21	0.0
COc1ccc(Cl)cc1C(=O)NCCc1ccc(S(=O)(=O)NC(=O)NC2CCCCC2)cc1	0.0
CC(=O)Nc1ccc(/C=N/NC(N)=S)cc1	0.0
Nc1ncnc2c1ncn2[C@@H]1O[C@H](CO)[C@@H](O)[C@H]1O	0.0
O=S(=O)(O)c1cc(I)c(O)c2ncccc12	0.0
Cn1c(=O)c2c(ncn2CC2OCCO2)n(C)c1=O	0.0

###

Assay: qHTS Assay for Identifying Gametocytocidal Compounds (AID 743244);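 note: % is set by controls: 0 for no effect and ±100 for the full control effect; actives lower the fluorescent signal which means gametocytes are killed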
Conditions: P. falciparum 3D7 stage III-V gametocytes, alamarBlue, 72 h; stronger effect = lower value
Records with an inconclusive call do not appear.
Known max response of a selection of molecules

molecule	output unit	max response
CN(C)CCOC(C)(c1ccccc1)c1ccccn1 (stereo not given)	%	7.8
N[C@@H](CSSC[C@H](N)C(=O)O)C(=O)O	%	13.6
O=c1cc[nH]c(=O)[nH]1	%	17
Nc1ccc(S(=O)(=O)Nc2nccs2)cc1	%	3.15
CCCCC/C(C=O)=C\c1ccccc1	%	8.31

###

Assay: Cell Viability - N2a (AID 540);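 note: cells exposed to compound for 40 h at 37 °C; plate controls were DMSO alone for no effect and tamoxifen control for full effect; nearly all actives have a fitted effect of over 45% in size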
Settings: N2a mouse neuroblastoma cell viability; at 92.2 µM (top of the series)
Records with an inconclusive call do not appear. The source made the active and inactive calls. Calls come from the whole dose curve; as a rule, active = well fitted cell-killing curve with a large enough effect; inconclusive = small, poorly fitted or top-dose-only effect; inactive = flat fitted curve, though single readings scatter.
Classes used: active, inactive

item smiles	group
O=C1O[C@H]([C@@H](O)CO)C(O)=C1O	inactive
Cc1cc2nc3c(=O)[nH]c(=O)nc-3n(C[C@H](O)[C@H](O)[C@H](O)CO)c2cc1C	inactive
Nc1ccc(S(=O)(=O)Nc2nccs2)cc1	inactive
[Cl][In]([Cl])[Cl]	inactive
CC1(C)[C@@H]2CC[C@@]1(C)C(=O)C2	inactive
Cc1c(O)cccc1C(=O)N[C@@H](CSc1ccccc1)[C@H](O)CN1C[C@H]2CCCC[C@H]2C[C@H]1C(=O)NC(C)(C)C	active
NCCNCCNCCN	inactive
NCCNCCNCCNCCN	inactive
